Values were extracted from patent US20090305995A1.

# assay-overview: high throughput permeability (HT-Permeability, log Pe)
# Format: physicochemical
# protocol-conditions: PAMPA, pH 6.8, pH 6.8; Pe in cm/s; read-out: HT-Permeability logPe pH 6.8 (converted)
value-type: Papp (×10⁻⁶ cm/s)
Response body: numeric value in ×10⁻⁶ cm/s, unit text excluded.

Ask: Name the reported Papp value associated with the molecule NCCCC[C@@H](CC(=O)NC1CCCC1)NC(=O)[C@@H](Cc1c[nH]c2ccccc12)NC(=O)C[C@H](Cc1ccccc1)NC(=O)C12CC3CC(CC(C3)C1)C2 [Compound 34]
Reply: 6.31

Ask: Name the reported Papp value associated with the molecule C[C@@H](O)[C@@H](CC(N)=O)NC(=O)C[C@H](CCCCN)NC(=O)[C@@H](Cc1c[nH]c2ccccc12)NC(=O)C[C@H](Cc1ccccc1)NC(=O)CCc1ccccc1 [Compound 15]
Reply: 6.31

Ask: Name the reported Papp value associated with the molecule CCCCCCCCC(=O)N[C@H](CC(=O)N[C@H](Cc1c[nH]c2ccccc12)C(=O)N[C@@H](CCCCN)CC(=O)N[C@H](CC(N)=O)[C@@H](C)O)Cc1ccccc1 [Compound 17]
Reply: 2.51

Ask: Name the reported Papp value associated with the molecule CCCCCN(C)C(=O)C[C@H](CCCCN)NC(=O)[C@@H](Cc1c[nH]c2ccccc12)NC(=O)C[C@H](Cc1ccccc1)NC(=O)CC [Compound 48]
Reply: 1.58

Ask: Name the reported Papp value associated with the molecule CCCCN(C)C(=O)C[C@H](CCCCN)NC(=O)[C@@H](Cc1c[nH]c2ccccc12)NC(=O)C[C@H](Cc1ccccc1)NC(=O)CC [Compound 43]
Reply: 2

Ask: Name the reported Papp value associated with the molecule CCCCCN(C)C(=O)C[C@H](CCCCN)NC(=O)[C@@H](Cc1c[nH]c2ccccc12)N(C)C(=O)C[C@H](Cc1ccccc1)NC(=O)CC [Compound 64]
Reply: 6.31

Ask: Name the reported Papp value associated with the molecule CC(=O)N[C@H](CC(=O)N(C)[C@H](Cc1cn(C)c2ccccc12)C(=O)N[C@@H](CCCCN)CC(=O)N[C@@H]1CC(=O)O[C@@H]1C)Cc1ccccc1 [Compound 37]
Reply: 5.01

* * *

Assignment: determine reported logP for the given compounds.
# assay-overview: logP octanol by pH-metric titration (GLpKa instrument)
# Format: physicochemical
# protocol-conditions: read-out: log P/D logP octanol
# output: bare number, no unit

Ask: Name the reported logP value associated with the compound NCCCC[C@@H](CC(N)=O)NC(=O)[C@@H](Cc1c[nH]c2ccccc12)NC(=O)C[C@@H](N)Cc1ccccc1 [Compound 59, (S)-β^3-HPhe-(R)-Trp-(S)-β^3-HLys-NH2]
Reply: 1

Ask: Name the reported logP value associated with the compound CCCCCN(C)C(=O)C[C@H](CCCCN)NC(=O)[C@@H](Cc1c[nH]c2ccccc12)NC(=O)C[C@H](Cc1ccccc1)NC(=O)CC
Reply: 2.8

Ask: Name the reported logP value associated with the compound CC(=O)N[C@H](CC(=O)N[C@H](Cc1c[nH]c2ccccc12)C(=O)N[C@@H](CCCCN)CC(=O)N[C@@H]1CC(=O)O[C@@H]1C)Cc1ccccc1
Reply: 0.4

* * *

# assay-overview: high throughput permeability (HT-Permeability, log Pe)
# Assay type: physicochemical
# protocol-conditions: PAMPA, pH 4, pH 4.0; Pe in cm/s; read-out: HT-Permeability logPe pH 4.0 (converted)
Assignment: determine reported Papp for the given compounds.
Response body: numeric value in ×10⁻⁶ cm/s, unit text excluded.

Ask: Name the reported Papp value associated with the compound CCN(CC)C(=O)C[C@@H](NC(=O)C[C@H](CCCCN)NC(=O)[C@@H](Cc1c[nH]c2ccccc12)NC(=O)C[C@H](Cc1ccccc1)NC(=O)CCc1ccccc1)C(C)C
Reply: 0.1

Ask: Name the reported Papp value associated with the compound CCCC(=O)N[C@H](CC(=O)N[C@H](Cc1c[nH]c2ccccc12)C(=O)N[C@@H](CCCCN)CC(N)=O)Cc1ccccc1
Reply: 1.26

Ask: Name the reported Papp value associated with the compound C[C@H]1OC(=O)C[C@H]1NC(=O)C[C@H](CCCCN)NC(=O)[C@@H](Cc1cn(C)c2ccccc12)NC(=O)C[C@H](Cc1ccccc1)NC(=O)CCc1ccccc1
Reply: 0.1

Ask: Name the reported Papp value associated with the compound CCCCCCCCC(=O)N[C@H](CC(=O)N[C@H](Cc1c[nH]c2ccccc12)C(=O)N[C@@H](CCCCN)CC(=O)N[C@@H]1CC(=O)O[C@@H]1C)Cc1ccccc1
Reply: 0.1

* * *

# assay-overview: high throughput solubility (HT-Solubility)
# Type: physicochemical
# protocol-conditions: pH 6.8, pH 6.8; read-out: HT-Solubility pH 6.8
value-type: solubility (µg/mL)
Response body: numeric value in µg/mL, unit text excluded.

Ask: Name the reported solubility value associated with the compound CCCCN(C)C(=O)C[C@H](CCCCN)NC(=O)[C@@H](Cc1c[nH]c2ccccc12)NC(=O)C[C@H](Cc1ccccc1)NC(=O)CC
Reply: 126

Ask: Name the reported solubility value associated with the compound C[C@@H](O)[C@@H](CC(N)=O)NC(=O)C[C@H](CCCCN)NC(=O)[C@@H](Cc1c[nH]c2ccccc12)NC(=O)C[C@@H](N)Cc1ccccc1
Reply: 124

Ask: Name the reported solubility value associated with the compound CC(=O)N[C@H](CC(=O)N(C)[C@H](Cc1cn(C)c2ccccc12)C(=O)N[C@@H](CCCCN)CC(=O)N[C@@H]1CC(=O)O[C@@H]1C)Cc1ccccc1
Reply: 67.5

Ask: Name the reported solubility value associated with the compound CC(=O)N(C)[C@H](CC(=O)N[C@H](Cc1c[nH]c2ccccc12)C(=O)N[C@@H](CCCCN)CC(=O)N[C@@H]1CC(=O)O[C@@H]1C)Cc1ccccc1
Reply: 132

Ask: Name the reported solubility value associated with the compound C[C@@H](O)[C@@H](CC(N)=O)NC(=O)C[C@H](CCCCN)NC(=O)[C@@H](Cc1c[nH]c2ccccc12)NC(=O)C[C@H](Cc1ccccc1)NC(=O)C1CCCCC1
Reply: 1.5

Ask: Name the reported solubility value associated with the compound CC(=O)N[C@H](CC(=O)N[C@H](Cc1c[nH]c2ccccc12)C(=O)N[C@@H](CCCCN)CC(=O)N[C@@H]1CC(=O)O[C@@H]1C)Cc1ccccc1
Reply: 129

Ask: Name the reported solubility value associated with the compound CCCC(=O)N[C@H](CC(=O)N[C@H](Cc1c[nH]c2ccccc12)C(=O)N[C@@H](CCCCN)CC(N)=O)Cc1ccccc1
Reply: 115

Ask: Name the reported solubility value associated with the compound CC(C)[C@@H](CC(=O)N(C)CCc1ccccc1)NC(=O)C[C@H](CCCCN)NC(=O)[C@@H](Cc1c[nH]c2ccccc12)NC(=O)C[C@H](Cc1ccccc1)NC(=O)CCc1ccccc1
Reply: 17.4

Ask: Name the reported solubility value associated with the compound CCCCCNC(=O)C[C@H](CCCCN)NC(=O)[C@@H](Cc1c[nH]c2ccccc12)N(C)C(=O)C[C@H](Cc1ccccc1)NC(=O)CC
Reply: 129

Ask: Name the reported solubility value associated with the compound CCCCNC(=O)C[C@H](CCCCN)NC(=O)[C@@H](Cc1c[nH]c2ccccc12)NC(=O)C[C@H](Cc1ccccc1)NC(C)=O
Reply: 121

Ask: Name the reported solubility value associated with the compound C[C@H]1OC(=O)C[C@H]1NC(=O)C[C@H](CCCCN)NC(=O)[C@@H](Cc1cn(C)c2ccccc12)NC(=O)C[C@H](Cc1ccccc1)NC(=O)C12CC3CC(CC(C3)C1)C2
Reply: 15.6

* * *

# assay-overview: high throughput solubility (HT-Solubility)
# Format: physicochemical
# protocol-conditions: pH 1, pH 1.0; read-out: HT-Solubility pH 1.0
Assignment: determine reported solubility for the given compounds.
Response body: numeric value in µg/mL, unit text excluded.

Ask: Name the reported solubility value associated with the compound C[C@@H](O)[C@@H](CC(N)=O)NC(=O)C[C@H](CCCCN)NC(=O)[C@@H](Cc1c[nH]c2ccccc12)NC(=O)C[C@H](Cc1ccccc1)NC(=O)CCc1ccccc1
Reply: 37.7

Ask: Name the reported solubility value associated with the compound CCN(CC)C(=O)C[C@@H](NC(=O)C[C@H](CCCCN)NC(=O)[C@@H](Cc1c[nH]c2ccccc12)NC(=O)C[C@H](Cc1ccccc1)NC(=O)CCc1ccccc1)C(C)C
Reply: 16.2

Ask: Name the reported solubility value associated with the compound CCCCCCCCC(=O)N[C@H](CC(=O)N[C@H](Cc1c[nH]c2ccccc12)C(=O)N[C@@H](CCCCN)CC(=O)N[C@H](CC(N)=O)[C@@H](C)O)Cc1ccccc1
Reply: 15.2

* * *

# assay-overview: HT-logP o/w, high throughput assay based on artificial liquid membrane permeability
# Type: physicochemical
# protocol-conditions: octanol/water, read-out: HT LogP ohw
Assignment: determine reported logP for the given molecules.
# output: bare number, no unit

Ask: Name the reported logP value associated with the molecule CCCCNC(=O)C[C@H](CCCCN)NC(=O)[C@@H](Cc1c[nH]c2ccccc12)NC(=O)C[C@H](Cc1ccccc1)NC(=O)CC
Reply: 3.1

Ask: Name the reported logP value associated with the molecule CC(=O)N[C@H](CC(=O)N[C@H](Cc1c[nH]c2ccccc12)C(=O)N[C@@H](CCCCN)CC(=O)NC1CCCC1)Cc1ccccc1
Reply: 2.8

Ask: Name the reported logP value associated with the molecule CN[C@H](CC(=O)N[C@H](Cc1c[nH]c2ccccc12)C(=O)N[C@@H](CCCCN)CC(=O)N[C@@H]1CC(=O)O[C@@H]1C)Cc1ccccc1
Reply: 3.2

Ask: Name the reported logP value associated with the molecule C[C@@H](O)[C@@H](CC(N)=O)NC(=O)C[C@H](CCCCN)NC(=O)[C@@H](Cc1c[nH]c2ccccc12)NC(=O)C[C@H](Cc1ccccc1)NC(=O)C12CC3CC(CC(C3)C1)C2
Reply: 3.2

Ask: Name the reported logP value associated with the molecule CC(=O)N[C@H](CC(=O)N(C)[C@H](Cc1cn(C)c2ccccc12)C(=O)N[C@@H](CCCCN)CC(=O)N[C@@H]1CC(=O)O[C@@H]1C)Cc1ccccc1
Reply: 2.4

Ask: Name the reported logP value associated with the molecule CCCCCCCCC(=O)N[C@H](CC(=O)N[C@H](Cc1c[nH]c2ccccc12)C(=O)N[C@@H](CCCCN)CC(=O)N[C@H](CC(N)=O)[C@@H](C)O)Cc1ccccc1
Reply: 4.2
